What GI50 was measured for each of the following?
System: human colorectal cancer cell line COLO-320DM
assayName: Cell proliferation inhibitory activity test (Celltiter-Glo)
Assay type: cell-based
measurementParameters: COLO-320DM cells, 96 hours

Field: example entries. Status: answers known.
[
  {
    "molecule": "CN1c2ccccc2C(=O)NC1c1c[nH]nc1-c1cc(F)cc(F)c1 (stereo not drawn) [Example 47]",
    "targetUnderTest": "human colorectal cancer cell line COLO-320DM",
    "GI50": "≥ 10 µM"
  },
  {
    "molecule": "COc1ccc(-c2n[nH]cc2C2NC(=O)c3ccccc3N2CC2CC2)cc1 (stereo not drawn) [Example 14]",
    "targetUnderTest": "human colorectal cancer cell line COLO-320DM",
    "GI50": "≥ 10 µM"
  },
  {
    "molecule": "COc1ccc(-c2c[nH]nc2C2NC(=O)c3cccc(C)c3N2)cc1 (stereo not drawn) [Example 87]",
    "targetUnderTest": "human colorectal cancer cell line COLO-320DM",
    "GI50": "1 to 10 µM"
  },
  {
    "molecule": "Cc1cccc2c1NC(c1n[nH]nc1-c1ccc(OC(F)F)cc1)NC2=O (stereo not drawn) [Example 73]",
    "targetUnderTest": "human colorectal cancer cell line COLO-320DM",
    "GI50": "≥ 10 µM"
  },
  {
    "molecule": "CCOc1ccc(-c2n[nH]nc2C2NC(=O)c3cccc(C)c3N2)cc1 (racemic) [Example 70]",
    "targetUnderTest": "human colorectal cancer cell line COLO-320DM",
    "GI50": "< 1 µM"
  }
]

Working through the 4 molecules below one at a time, give GI50 for each.
1. CCOc1ccc(-c2n[nH]cc2C2NC(=O)c3cccc(C)c3N2)cc1 (stereo not drawn) [Example 55]
2. CN1c2ccccc2C(=O)NC1c1c[nH]nc1-c1ccc(OC(F)(F)F)cc1 (stereo not drawn) [Example 48]
3. CN1c2ccccc2C(=O)NC1c1c[nH]nc1-c1cccc(Cl)c1 (stereo not drawn) [Example 42]
4. Cc1cccc2c1NC(c1n[nH]nc1-c1ccc(OCC(F)F)cc1)NC2=O (stereo not drawn) [Example 78]

["1 to 10 µM", "1 to 10 µM", "1 to 10 µM", "1 to 10 µM"]

---

// values below are pIC50; system is UniProt O95271
Sequence (O95271 1024-1327): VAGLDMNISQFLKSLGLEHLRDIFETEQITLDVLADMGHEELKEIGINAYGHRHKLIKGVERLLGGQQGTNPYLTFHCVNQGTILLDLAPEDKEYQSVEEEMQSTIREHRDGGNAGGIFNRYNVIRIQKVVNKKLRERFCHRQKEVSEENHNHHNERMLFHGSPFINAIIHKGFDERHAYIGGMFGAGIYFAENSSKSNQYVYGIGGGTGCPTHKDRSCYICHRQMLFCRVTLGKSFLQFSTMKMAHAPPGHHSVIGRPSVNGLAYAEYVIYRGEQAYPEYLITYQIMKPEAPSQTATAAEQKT
pIC50: −log10 of the molar value.

Record excerpt, results attached:
[
  {
    "compound": "CN1CCN(Cc2cccc(-c3cccc(-c4n[nH]cc4C4NC(=O)c5ccccc5N4C)c3)c2)CC1 (centres unmarked)",
    "pIC50": "7.30 to 7.70"
  },
  {
    "compound": "CN1c2ccccc2C(=O)NC1c1c[nH]nc1-c1ccc(-c2ccccc2)cc1 (centres unmarked)",
    "pIC50": "7.30 to 7.70"
  },
  {
    "compound": "CCOC(=O)COc1ccc(-c2n[nH]nc2C2NC(=O)c3cccc(C)c3N2)cc1 (centres unmarked)",
    "pIC50": "7.70 to 8.30"
  },
  {
    "compound": "COc1ccc(-c2n[nH]nc2C2NC(=O)c3cccc(C(F)(F)F)c3N2)cc1 (centres unmarked)",
    "pIC50": "7.30 to 7.70"
  },
  {
    "compound": "CCOc1ccc(-c2n[nH]nc2C2NC(=O)c3cccc(CC)c3N2)cc1 (centres unmarked)",
    "pIC50": "7.70 to 8.30"
  },
  {
    "compound": "COc1ccc(-c2n[nH]cc2C2NC(=O)c3ccc(C)cc3N2C)cc1 (centres unmarked)",
    "pIC50": "7.70 to 8.30"
  },
  {
    "compound": "CN1c2ccccc2C(=O)NC1c1c[nH]nc1-c1ccc(OCc2ccccc2)cc1 (centres unmarked)",
    "pIC50": "7.70 to 8.30"
  },
  {
    "compound": "Cc1cccc2c1NC(c1n[nH]nc1-c1ccc(OC(F)F)cc1)NC2=O (centres unmarked)",
    "pIC50": "7.30 to 7.70"
  },
  {
    "compound": "COc1ccc(-c2n[nH]nc2C2NC(=O)c3ccccc3N2C)cc1 (centres unmarked)",
    "pIC50": "7.70 to 8.30"
  },
  {
    "compound": "CN(C)c1ccc(-c2ccc(-c3n[nH]cc3C3NC(=O)c4ccccc4N3C)cc2)cc1 (centres unmarked)",
    "pIC50": "7.30 to 7.70"
  }
]

Below are 3 compounds. Give each one its pIC50.
1. CN1c2ccccc2C(=O)NC1c1c[nH]nc1-c1cccc(Cl)c1 (centres unmarked)
2. COc1ccc(-c2n[nH]nc2C2NC(=O)c3ccccc3N2)cc1 (centres unmarked)
3. COc1ccc(-c2n[nH]cc2C2NC(=O)c3ccccc3N2CC2CC2)cc1 (centres unmarked)

1: 7.30 to 7.70; 2: 7.30 to 7.70; 3: 7.30 to 7.70

Just so you know, measured pIC50 for O=C1NC(c2c[nH]nc2-c2ccccc2)Nc2ccccc21 (centres unmarked) came out at 7.30 to 7.70

---

System: human colorectal cancer cell line COLO-320DM
assayName: Cell proliferation inhibitory activity test (Celltiter-Glo)
Type: cell-based
measurementParameters: COLO-320DM cells, 96 hours
For each entry below, report its GI50 value.

[
  {
    "compound": "CN1CCN(c2cccc(-c3ccc(-c4[nH]ncc4C4NC(=O)c5ccccc5N4C)cc3)c2)CC1 (centres unmarked) [Example 38]",
    "readout": "GI50",
    "assayValue": "1 to 10 µM"
  }
]

Quick batch: GI50 for everything below.
1. CCc1cccc2c1NC(c1n[nH]nc1-c1ccc(OC)cc1)NC2=O (centres unmarked) [Example 81]
2. CN1CCN(Cc2ccc(-c3ccc(-c4n[nH]cc4C4NC(=O)c5ccccc5N4C)cc3)cc2)CC1 (centres unmarked) [Example 25]
3. CCc1cccc2c1NC(c1c[nH]nc1-c1ccc(OC)cc1)NC2=O (centres unmarked) [Example 57]

1: 1 to 10 µM; 2: ≥ 10 µM; 3: 1 to 10 µM

Below are some compounds; for each one, tell me its GI50.
1. CN1c2ccccc2C(=O)NC1c1c[nH]nc1-c1ccc(Oc2ccccc2)cc1 (centres unmarked) [Example 18]
2. CN1CCN(c2ccc(-c3cccc(-c4n[nH]nc4C4NC(=O)c5ccccc5N4C)c3)cc2)CC1 (centres unmarked) [Example 61]
3. Cc1cccc2c1NC(c1n[nH]nc1-c1ccc(OCC(F)(F)F)cc1)NC2=O (centres unmarked) [Example 72]
4. CN1c2ccccc2C(=O)NC1c1c[nH]nc1-c1ccc(-c2ccc(N3CCOCC3)cc2)cc1 (centres unmarked) [Example 29]

1. ≥ 10 µM
2. ≥ 10 µM
3. 1 to 10 µM
4. 1 to 10 µM

---

Test system: human colorectal cancer cell line COLO-320DM
assayName: Cell proliferation inhibitory activity test (Celltiter-Glo)
Type: cell-based
measurementParameters: COLO-320DM cells, 96 hours
Kindly supply the reported GI50 values for the records listed here.

Example entries begin here.
[
  {
    "molecule": "CN1c2ccccc2C(=O)NC1c1c[nH]nc1-c1ccc(OCc2ccccc2)c(F)c1 (centres unmarked)",
    "targetUnderTest": "human colorectal cancer cell line COLO-320DM",
    "assayValue": "1 to 10 µM"
  },
  {
    "molecule": "Cc1cccc2c1NC(c1c[nH]nc1-c1ccc(OCC(F)(F)F)cc1)NC2=O (centres unmarked)",
    "targetUnderTest": "human colorectal cancer cell line COLO-320DM",
    "assayValue": "1 to 10 µM"
  },
  {
    "molecule": "CN1CCN(Cc2cccc(-c3ccc(-c4n[nH]cc4C4NC(=O)c5ccccc5N4C)cc3)c2)CC1 (centres unmarked)",
    "targetUnderTest": "human colorectal cancer cell line COLO-320DM",
    "assayValue": "≥ 10 µM"
  },
  {
    "molecule": "CN1c2ccccc2C(=O)NC1c1n[nH]nc1-c1ccc(Br)cc1 (centres unmarked)",
    "targetUnderTest": "human colorectal cancer cell line COLO-320DM",
    "assayValue": "1 to 10 µM"
  },
  {
    "molecule": "CCCOc1ccc(-c2n[nH]nc2C2NC(=O)c3cccc(C)c3N2)cc1 (centres unmarked)",
    "targetUnderTest": "human colorectal cancer cell line COLO-320DM",
    "assayValue": "1 to 10 µM"
  },
  {
    "molecule": "CN1c2ccccc2C(=O)NC1c1c[nH]nc1-c1cccc(Br)c1 (centres unmarked)",
    "targetUnderTest": "human colorectal cancer cell line COLO-320DM",
    "assayValue": "≥ 10 µM"
  }
]

Okay, here is my list. What is GI50 for each of these?
1. Cc1cccc2c1NC(c1n[nH]nc1-c1ccc(OC(C)C)cc1)NC2=O (centres unmarked)
2. CN1CCN(Cc2cccc(-c3cccc(-c4n[nH]cc4C4NC(=O)c5ccccc5N4C)c3)c2)CC1 (centres unmarked)

1. 1 to 10 µM
2. ≥ 10 µM
